TESTED SYSTEM: T1, Macaca fascicularis (mf) RET.mmh (Macaca fascicularis)
T1 construct: also called monkey RET
T1 chain: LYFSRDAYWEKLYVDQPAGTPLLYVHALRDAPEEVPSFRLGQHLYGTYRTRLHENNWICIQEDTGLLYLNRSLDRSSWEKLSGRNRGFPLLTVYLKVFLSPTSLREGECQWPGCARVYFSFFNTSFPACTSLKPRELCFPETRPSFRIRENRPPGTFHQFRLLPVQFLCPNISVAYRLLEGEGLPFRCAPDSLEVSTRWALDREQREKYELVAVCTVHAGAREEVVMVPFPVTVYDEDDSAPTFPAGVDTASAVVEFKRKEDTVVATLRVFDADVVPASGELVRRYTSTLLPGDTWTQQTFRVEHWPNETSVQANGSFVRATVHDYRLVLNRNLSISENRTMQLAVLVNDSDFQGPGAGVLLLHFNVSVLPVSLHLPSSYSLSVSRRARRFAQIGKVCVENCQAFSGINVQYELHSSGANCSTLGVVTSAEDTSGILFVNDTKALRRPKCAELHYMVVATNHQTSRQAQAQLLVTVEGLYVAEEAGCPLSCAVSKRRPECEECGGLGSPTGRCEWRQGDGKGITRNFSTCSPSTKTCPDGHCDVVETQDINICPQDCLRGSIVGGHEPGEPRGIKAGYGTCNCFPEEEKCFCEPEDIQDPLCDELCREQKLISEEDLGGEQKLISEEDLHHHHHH
ASSAY SUMMARY: SPR Biacore T200, mAb capture, 37 C
ENDPOINT LABEL: pKd
Scale note: pKd = -log10(concentration in M).

Need pKd, item H4H8071P (antibody, human IgG4, V domains shown, human IgG4 Fc (H4H prefix)) VH: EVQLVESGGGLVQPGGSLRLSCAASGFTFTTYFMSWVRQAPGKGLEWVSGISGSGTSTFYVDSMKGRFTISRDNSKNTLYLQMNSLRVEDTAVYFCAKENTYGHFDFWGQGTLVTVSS VL: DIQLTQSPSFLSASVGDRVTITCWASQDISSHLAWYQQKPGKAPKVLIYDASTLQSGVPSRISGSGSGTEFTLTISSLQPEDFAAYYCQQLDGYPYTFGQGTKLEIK
8.15

Value lookup for pKd; key = H4H8083P (antibody, human IgG4, V domains shown, human IgG4 Fc (H4H prefix)) VH: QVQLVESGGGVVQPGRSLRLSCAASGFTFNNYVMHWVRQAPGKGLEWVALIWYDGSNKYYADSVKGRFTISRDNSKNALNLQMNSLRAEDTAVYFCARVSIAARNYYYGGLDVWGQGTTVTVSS VL: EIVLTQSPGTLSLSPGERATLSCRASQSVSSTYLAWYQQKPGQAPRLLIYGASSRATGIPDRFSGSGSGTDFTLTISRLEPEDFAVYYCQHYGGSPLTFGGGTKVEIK
7.85

Record request: pKd value, item H4H8056P (antibody, human IgG4, V domains shown, human IgG4 Fc (H4H prefix)) VH: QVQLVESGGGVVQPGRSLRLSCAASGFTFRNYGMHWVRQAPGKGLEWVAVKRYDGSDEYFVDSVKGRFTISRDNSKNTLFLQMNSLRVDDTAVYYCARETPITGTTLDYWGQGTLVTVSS VL: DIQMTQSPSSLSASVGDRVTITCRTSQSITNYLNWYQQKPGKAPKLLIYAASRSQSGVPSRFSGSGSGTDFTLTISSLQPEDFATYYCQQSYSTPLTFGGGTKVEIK
7.99

Which pKd is reported for this binder? H4H8066P (antibody, human IgG4, V domains shown, human IgG4 Fc (H4H prefix)) VH: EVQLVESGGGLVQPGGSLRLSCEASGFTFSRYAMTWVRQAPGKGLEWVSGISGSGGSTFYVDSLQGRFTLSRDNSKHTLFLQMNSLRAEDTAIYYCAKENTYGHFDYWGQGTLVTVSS VL: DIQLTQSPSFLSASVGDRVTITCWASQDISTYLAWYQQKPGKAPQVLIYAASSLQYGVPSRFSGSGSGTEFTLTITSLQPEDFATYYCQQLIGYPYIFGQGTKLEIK
7.40

Query: pKd; subject: H4H8045P (antibody, human IgG4, V domains shown, human IgG4 Fc (H4H prefix)) VH: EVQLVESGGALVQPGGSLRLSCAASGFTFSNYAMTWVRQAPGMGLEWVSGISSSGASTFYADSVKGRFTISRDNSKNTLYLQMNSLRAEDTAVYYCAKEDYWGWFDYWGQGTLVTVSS VL: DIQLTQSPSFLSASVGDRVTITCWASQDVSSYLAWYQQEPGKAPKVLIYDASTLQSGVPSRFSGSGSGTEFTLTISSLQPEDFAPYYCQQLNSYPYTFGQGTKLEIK
7.30

Dear colleague, I am looking for the recorded pKd of the following binder: H4H8058P (antibody, human IgG4, V domains shown, human IgG4 Fc (H4H prefix)) VH: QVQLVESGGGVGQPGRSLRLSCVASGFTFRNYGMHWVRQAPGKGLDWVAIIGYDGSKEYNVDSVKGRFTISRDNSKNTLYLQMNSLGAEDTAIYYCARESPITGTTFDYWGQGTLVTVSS VL: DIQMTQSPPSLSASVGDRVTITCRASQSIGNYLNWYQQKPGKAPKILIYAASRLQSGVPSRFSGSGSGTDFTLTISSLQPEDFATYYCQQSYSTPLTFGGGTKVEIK
8.38
